test system: brain; test: Induction of microtubule assembly in bovine brain cells by turbidimetric assay; format: cell-based; settings: Bos taurus
Activity calls are given as the source filed them. No cut-off for these calls is given here.

COMPOUND | Activity
CC[C@@H]1C=CC(=O)O[C@@H]1[C@H](C)C[C@@H](C)[C@@H](O)C[C@H](O)/C=C\C=C/c1cccc(O)c1Cl [BITUNGOLIDE A] | inactive
CC[C@@H]1C=CC(=O)O[C@@H]1[C@H](C)C[C@@H](C)[C@@H](O)C[C@H](O)/C=C\C=C\c1cccc(O)c1Cl [BITUNGOLIDE C] | inactive
CC[C@@H]1C=CC(=O)O[C@@H]1[C@H](C)C[C@@H](C)[C@@H](O)C[C@H](O)/C=C/C=C/c1ccccc1 [BITUNGOLIDE E] | inactive
